The reported measurements were obtained from PubChem BioAssay (NCI).

System: BT-549 breast
Assay: NCI tumour cell line growth inhibition, 48 h
Measured attribute: TGI

Some solved entries appear below for comparison.
In [3]: df
Out[3]:
                                   compound  reported_result
0  O=C1C(Cl)C2(CC(/C=C/c3ccccc3)=NN2c2cccc(S(=O)(=O)O)c2)N1c1nc2ccccc2s1 (centres undefined)          28.5 µM
1  COc1cc(O)c2c(=O)c(O)c(-c3ccc(O)c(OC)c3)oc2c1         > 100 µM

Record summary for COC(=O)CCCCC(=O)c1c(C)[nH]c(/C=C2\N=C(c3ccc[nH]3)C=C2OC)c1C : reported TGI = 1.85 µM

Form field TGI, entry CCOC(=O)C(C(=O)OCC)=C1NC2(c3ccccc3Nc3ccccc32)C(C#N)S1 (centres undefined) : 27.5 µM

Record summary for COC(=O)c1cncc(/C=C/c2c(C)cc(O)cc2C)c1 : reported TGI = > 25 µM

Lab book: TGI of COC(=O)c1c(C)n([O-])c2cc(Cl)c(Cl)cc2[n+]1=O noted as > 100 µM

Sample COc1cc2c(c(O)c1OC)C(=O)[C@@H]1CCC(=O)N1C2 ; TGI observed: > 100 µM

Notebook: COc1ccc(N2C(=O)/C(=C\c3cc(OC)c(OC)c(OC)c3)SC2c2ccccc2)cc1 (centres undefined) , TGI read as > 100 µM

// CCC(=O)C(CCN1CCC2(CCCc3ccccc32)CC1)(c1ccccc1)c1ccccc1 : TGI value = 3.36 µM
